target: tumor necrosis factor alpha (TNFα) (human, UniProt P01375 77-233); assay: cell-based or functional assay
Sequence (P01375 77-233 limits assumed): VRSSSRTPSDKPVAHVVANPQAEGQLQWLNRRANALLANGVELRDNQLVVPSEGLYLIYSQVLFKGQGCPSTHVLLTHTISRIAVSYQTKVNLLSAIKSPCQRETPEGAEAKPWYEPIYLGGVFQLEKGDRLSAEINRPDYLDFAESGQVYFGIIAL
PROPERTY NAME: IC50, TNFα cytotoxicity assay (WEHI-13VAR cells)

Could you share which IC50, TNFα cytotoxicity assay (WEHI-13VAR cells) value was measured for MAb 715 (antibody, V domains shown, also called 141 F2; H1278/L250) VH: EVQLLESGGGLIQPGGSLRLSCAASGFTVSNNYMSWVRQAPGKGLQWVAVIYSGGSTYYPDSMKGRFTISRDNSKNTLYLQMNSLRAEDTAVYYCARNYYGSTYDYWGQGTLVTVSS VL: EIVLTQSPVTLSVPPGERASLSCRASQNIYTAVAWYQQKPGQAPRLLIYGASTRATGIPARFSGGGSGTDYTLTISSLESEDFAVYHCQQYHSWPLTFGGGTKLEIK ?
21.4 nM

Could you share which IC50, TNFα cytotoxicity assay (WEHI-13VAR cells) value was measured for MAb 1007 (antibody, V domains shown) VH: EVQLVESGGGLIQPGGSLRLSCAVSGLNVSRDYMSWVRQAPGKGLEWISVIYRGGATMYADSVKGRFTISRDTSKNTVFLQMSRLKVADTAVYYCARNYYGSTYDYWGQGTLVTVSS VL: EIVLTQSPVTLSVPPGERASLSCRASQNIYTAVAWYQQKPGQAPRLLIYGASTRATGIPARFSGGGSGTDYTLTISSLESEDFAVYHCQQWHSWPLTFGGGTKLEIK ?
12.2 nM

Could you share which IC50, TNFα cytotoxicity assay (WEHI-13VAR cells) value was measured for MAb 2090 (antibody, V domains shown, IgG1/kappa, CHO; also called H1813/L472) VH: EVQLVESGGGLIQPGGSLRLSCAVSGLNVSRDYMSWVRQAPGKGLEWISVIYRIGATMYADSVKGRFTISRDTSKNTVFLQMSRLKVADTAVYYCARNYYGSTLDYWGQGTLVTVSS VL: EIVLTQSPATLSVSPGERASLSCRASQNIYTAVAWYQQKPGQAPRLLIYNAATRATGIPARFSGGGSGTDYTLTISSLESEDFAVYHCQQWHSWPLTFGGGTKLEIK ?
0.09 nM

Could you share which IC50, TNFα cytotoxicity assay (WEHI-13VAR cells) value was measured for MAb 1988 (antibody, V domains shown, IgG1/kappa, CHO; also called H1813/L459) VH: EVQLVESGGGLIQPGGSLRLSCAVSGLNVSRDYMSWVRQAPGKGLEWISVIYRIGATMYADSVKGRFTISRDTSKNTVFLQMSRLKVADTAVYYCARNYYGSTLDYWGQGTLVTVSS VL: EIVLTQSPVTLSVPPGERASLSCRASQNIYTAVAWYQQKPGQAPRLLIYNASTRATGIPARFSGGGSGTDYTLTISSLESEDFAVYHCQQWHSWPLTFGGGTKLEIK ?
0.2 nM

Could you share which IC50, TNFα cytotoxicity assay (WEHI-13VAR cells) value was measured for MAb 855 (antibody, V domains shown, IgG1/kappa, CHO; also called H1192/L332) VH: EVQLLESGGGLIQPGGSLRLSCAASGFTVSSNYMSWVRQAPGKGLEWVSVIYSGGRTYYADSVKGRFTISRDSSKNTLYLQMNSLRAEDTAVYYCARNYYGSTYDYWGQGTLVTVSS VL: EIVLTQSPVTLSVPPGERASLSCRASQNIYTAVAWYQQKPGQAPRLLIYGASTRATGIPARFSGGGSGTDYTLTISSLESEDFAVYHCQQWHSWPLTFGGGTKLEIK ?
3.5 nM
